Measured values drawn from patent US20080057063A1 for this set.

Target: T1, human αV on parental A375M cells, which express αVβ3 and αVβ5, but not αVβ6 (human, UniProt P06756 31-1048)
T1 construct: whole, on cells; Two heterodimers (αVβ3, αVβ5) on one cell line; also called αVβ3 or αVβ5 integrins
T1 sequence (P06756 31-1048 A375M): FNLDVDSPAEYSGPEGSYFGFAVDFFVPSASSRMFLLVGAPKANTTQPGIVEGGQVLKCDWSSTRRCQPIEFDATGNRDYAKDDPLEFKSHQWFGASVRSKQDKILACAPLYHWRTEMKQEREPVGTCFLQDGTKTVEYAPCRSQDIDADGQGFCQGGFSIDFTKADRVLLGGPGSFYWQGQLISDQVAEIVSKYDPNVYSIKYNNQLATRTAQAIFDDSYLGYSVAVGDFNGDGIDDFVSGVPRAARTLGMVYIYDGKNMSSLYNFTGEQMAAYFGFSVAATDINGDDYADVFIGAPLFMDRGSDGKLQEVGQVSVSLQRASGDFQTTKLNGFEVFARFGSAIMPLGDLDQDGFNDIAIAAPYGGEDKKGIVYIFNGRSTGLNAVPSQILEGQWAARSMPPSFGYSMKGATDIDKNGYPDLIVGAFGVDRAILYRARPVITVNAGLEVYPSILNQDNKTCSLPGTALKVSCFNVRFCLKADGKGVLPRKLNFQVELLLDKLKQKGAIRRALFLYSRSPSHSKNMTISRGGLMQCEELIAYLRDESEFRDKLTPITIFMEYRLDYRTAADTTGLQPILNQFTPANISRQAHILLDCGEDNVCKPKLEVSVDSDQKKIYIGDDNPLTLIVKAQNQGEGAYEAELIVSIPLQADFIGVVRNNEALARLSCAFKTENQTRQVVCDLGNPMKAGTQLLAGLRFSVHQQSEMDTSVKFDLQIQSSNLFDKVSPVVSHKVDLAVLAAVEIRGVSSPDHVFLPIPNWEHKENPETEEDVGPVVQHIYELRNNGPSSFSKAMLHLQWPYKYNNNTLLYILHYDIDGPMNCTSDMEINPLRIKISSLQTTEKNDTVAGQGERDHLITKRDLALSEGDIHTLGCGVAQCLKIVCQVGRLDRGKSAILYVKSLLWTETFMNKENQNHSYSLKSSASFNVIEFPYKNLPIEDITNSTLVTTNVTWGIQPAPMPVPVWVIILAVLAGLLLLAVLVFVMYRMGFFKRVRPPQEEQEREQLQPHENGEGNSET
Experiment: FACS, parental A375M cells (αVβ3, αVβ5)
Endpoint Label: % Cells Shifted (%)
One number for each entry, in %.

| Binder | % Cells Shifted, % |
| --- | --- |
| sc 277 (antibody, V domains shown) VH: EVQLVQSGAEVKKPGESLKISCKGSGYSFPSYWIGWVRQMPGKGLEWMGIIYPGDSDTRYSPSFQGQVTISADKSISTAYLQWSSLKASDTAMYYCARHPMEDGMDVWGQGTTVTVSS VL: SYELTQPPSVSVSPGQTARITCSGDALPKKYAFWYQQKSGQAPVLVIYDDNKRPSGIPERFSGSSSGTMATLTITGAQVEDEADYYCYSTDSSGHHVFGGGTKLTVL | 23 |

Below are 6 binders. Give each one its % Cells Shifted.
1. sc 264 (antibody, V domains shown, RGD in heavy chain CDR3) VH: QVQLQESGPGLVKPSQTLSLTCTVSGGSISSGGYYWSWIRQHPGKGLEWIGYIYYSGRTYNNPSLKSRVTISVDTSKNQFSLKLSSVTAADTAVYYCARVATGRGDYHFYAMDVWGQGTTVTVSS VL: SYELTQPSSVSVSPGQTARITCSGDVLAKKSARWFHQKPGQAPVLVIYKDSERPSGIPERFSGSSSGTTVTLTISGAQVEDEAAYYCYSAADNNLVFGGGTKLTVL
2. sc 161 (antibody, V domains shown) VH: EVQLVQSGAEVKKPGESLKISCKGSGYSFTSYWIGWVRQMPGKGLEWMGIIYPGDSDTRYSPSFQGQVTISADKSISTAYLQWSSLKASDTAMYYCARHGIAAAGFYYYYMDVWGQGTTVTVSS VL: EIVLTQSPDTLSLSPGERASLSCRASQNVNRNYLVWYQQKPGQAPRLLIYGTSNRATGIPDRFSGSGSGTDFTLTISRLEPEDFAVYYCQQCGSLPFTFGPGTKVDIKR
3. sc 97 (antibody, V domains shown, also called sc 097) VH: EVQLVQSGAEVKKPGESLKISCKGSGYSFTSYWIGWVRQMPGKGLEWMGIIYPGDSDTRYSPSFQGQVILSADKSISTAYLQWSSLKASDTAMYYCARHDESSGYYYVFDIWGQGTMVTVSS VL: SYELTQPPSVSVSPGQTARITCSGDALPKKYAYWYQQKSGQAPVLVIYEDIKRPSGIPERFSGSSSGTMATLTISGAQVEDEADYYCYSTDSSGNHWVFFGGGTKLTVL
4. sc 320 (antibody, V domains shown) VH: EVQLVESGGGLVKPGGSLRLSCAASGYTFTNYIMHWVRQAPGKGLEWVSSISISSSYIYYADSVKGRFTISRDNAKNSLYLQMNSLRAEDTAVYYCARDPVPLERRDYYYGMDVWGQGTTVTVSS VL: QSVLTQPPSMSAAPGQKVTISCSGSSSNIGNNYVSWYQQLPGTAPKLLIYDNNKRPSGIPDRFSGSKSGTSATLGITGLQTGDEADYYCGTWDSSLSAGVFGGGTKLTVL
5. sc 133 (antibody, V domains shown) VH: QVQLVQSGAEVKKPGASVKVSCKASGYTFTGYYMHWVRQAPGQGLEWMGWINPKSGDTNYAQKFQGRVTLTRDTSTSTAYMELSRLRSDDTAVYYCARRLDVWGQGTTVTVSS VL: QSVLTQPPSVSAAPGQKVTISCSGSSSNIGNNYVSWYQQLPGTAPKLLIYDNNKRPSGIPDRFSGSKSGTSATLGITGLQTGDEADYYCGTWNSSLSAGYVFGTGTKVTV
6. sc 298 (antibody, V domains shown) VH: QVQLVESGGGVVQPGRSLRLSCAASGFTFSSYGMHWVRQAPGKGLEWVAVIWYGGSNKYYADSVKGRFTISRDNSKNTLYLQMNSLRAEDTAVYYCARDLAARRGDYYYYGMDVWGQGTTVTVSS VL: SSELTQDPVVSVALGQTVRITCQGDSLRSYYLSWYQQKPGQAPVLVIYGKNNRPSGIPDRFSGSNSGNTASLTITGAQAEDEADYYCNSRDSSGNHLFGGGTKLTVL

OUT:
1: 46; 2: 11; 3: 24; 4: 15; 5: 24; 6: 45
